Readings of IC50 for the listed compounds
System: PANC-1
Experiment: Cytotoxicity against human PANC1 cells after 72 hrs by MTT assay
Assay type: functional, cell-based
Settings: PANC-1, 72 h
Write your answer as a measured quantity: the number, then the unit.

Consider the worked cases shown below.
{"columns": ["STRUCTURE_NOTATION", "IC50"],
 "data": [
  ["C=C/C=C\\[C@H](C)[C@@H]1OC(=O)/C=C\\C=C\\[C@@H](C)[C@@H](O)C[C@H](O)/C=C\\[C@H](C)[C@H](O)[C@@H](C)CCCC[C@@H](O)[C@@H]1C", "0.13 µM"],
  ["C=C/C=C\\[C@H](C)[C@@H]1OC(=O)/C=C\\C=C\\[C@@H](C)[C@@H](O)C[C@@H](O)/C=C\\[C@H](C)[C@H](O)[C@@H](C)CCCC[C@@H](O)[C@@H]1C", "1.5 µM"],
  ["C=C/C=C\\[C@H](C)[C@@H]1OC(=O)/C=C\\C=C\\[C@@H](C)[C@@H](O)C[C@H](OC)/C=C\\[C@H](C)[C@H](O)[C@@H](C)C[C@@H](C)CC[C@@H](O)[C@@H]1C", "0.0097 µM"]
]}

For the next question, use this compound.
Q: Identify the reported IC50 for the following entry. C=C/C=C\[C@H](C)[C@@H]1OC(=O)/C=C\C=C\[C@@H](C)[C@@H](O)C[C@@H](O)/C=C\[C@H](C)[C@H](O)[C@@H](C)C[C@@H](C)CC[C@@H](O)[C@@H]1C
Ans: 0.24 µM
